Substrate: O=C1CCCCC1
Protocol: purified protein
Format: biochemical, Streptosporangium roseum
Test Settings: 30 mM cyclopropylamine, 0.5 mM NADPH, Tris pH 8, 25 °C

Protein	Output Unit	kcat
SrIRED (Streptosporangium roseum DSM 43021; E146V) (protein) MRDTDVTVLGLGLMGQALAGAFLKDGHATTVWNRSEGKAGQLAEQGAVLASSARDAAEASPLVVVCVSDHAAVRAVLDPLGDVLAGRVLVNLTSGTSEQARATAEWAAERGITYLDGAIMAIPQVVGTADAFLLYSGPEAAYEAHVPTLRSLGAGTTYLGADHGLSSLYDVALLGIMWGTLNSFLHGAALLGTAKVEATTFAPFANRWIEAVTGFVSAYAGQVDQGAYPALDATIDTHVATVDHLIHESEAAGVNTELPRLVRTLADRALAGGQGGLGYAAMIEQFRSPSA	s⁻¹	1.7
SrIRED (Streptosporangium roseum DSM 43021; T241A) (protein) MRDTDVTVLGLGLMGQALAGAFLKDGHATTVWNRSEGKAGQLAEQGAVLASSARDAAEASPLVVVCVSDHAAVRAVLDPLGDVLAGRVLVNLTSGTSEQARATAEWAAERGITYLDGAIMAIPQVVGTADAFLLYSGPEAAYEAHEPTLRSLGAGTTYLGADHGLSSLYDVALLGIMWGTLNSFLHGAALLGTAKVEATTFAPFANRWIEAVTGFVSAYAGQVDQGAYPALDATIDTHVAAVDHLIHESEAAGVNTELPRLVRTLADRALAGGQGGLGYAAMIEQFRSPSA	s⁻¹	5.77
SrIRED (Streptosporangium roseum DSM 43021; T241S) (protein) MRDTDVTVLGLGLMGQALAGAFLKDGHATTVWNRSEGKAGQLAEQGAVLASSARDAAEASPLVVVCVSDHAAVRAVLDPLGDVLAGRVLVNLTSGTSEQARATAEWAAERGITYLDGAIMAIPQVVGTADAFLLYSGPEAAYEAHEPTLRSLGAGTTYLGADHGLSSLYDVALLGIMWGTLNSFLHGAALLGTAKVEATTFAPFANRWIEAVTGFVSAYAGQVDQGAYPALDATIDTHVASVDHLIHESEAAGVNTELPRLVRTLADRALAGGQGGLGYAAMIEQFRSPSA	s⁻¹	6.02
